test description: Compound 1 human absorption, metabolism, and excretion study (single oral dose of [14C] Compound 1)
Assay type: in vivo
condition summary: feces, sum 0-144 h
observable: % of Administered Dose in Feces Samples, Sum (%)
Answers are plain numbers, in %.

Examples with answers:
| mol | experimental result |
| --- | --- |
| CCN1C(=O)N(c2c(F)c(O)cc(OC)c2F)Cc2cnc3[nH]c(CN4CCOCC4)cc3c21 | 44.4 |
| CCN1C(=O)N(c2c(F)c(O)cc(OC)c2F)Cc2cnc3[nH]c(C(=O)O)cc3c21 | 1.6 |
| CCN1C(=O)N(c2c(F)c(O)cc(O)c2F)Cc2cnc3[nH]c(CN4CCOCC4)cc3c21 | 4.5 |

Lab note: next compound to report on.
Exercise: Specify % of Administered Dose in Feces Samples, Sum for CCN1C(=O)N(c2c(F)c(OC)cc(OC)c2F)Cc2cnc3[nH]c(CN4CCOCC4)cc3c21 and stop.
Solution: 1.4

* * *

study target: P-gp (Homo sapiens (Human))
Sequence (P08183 whole entry): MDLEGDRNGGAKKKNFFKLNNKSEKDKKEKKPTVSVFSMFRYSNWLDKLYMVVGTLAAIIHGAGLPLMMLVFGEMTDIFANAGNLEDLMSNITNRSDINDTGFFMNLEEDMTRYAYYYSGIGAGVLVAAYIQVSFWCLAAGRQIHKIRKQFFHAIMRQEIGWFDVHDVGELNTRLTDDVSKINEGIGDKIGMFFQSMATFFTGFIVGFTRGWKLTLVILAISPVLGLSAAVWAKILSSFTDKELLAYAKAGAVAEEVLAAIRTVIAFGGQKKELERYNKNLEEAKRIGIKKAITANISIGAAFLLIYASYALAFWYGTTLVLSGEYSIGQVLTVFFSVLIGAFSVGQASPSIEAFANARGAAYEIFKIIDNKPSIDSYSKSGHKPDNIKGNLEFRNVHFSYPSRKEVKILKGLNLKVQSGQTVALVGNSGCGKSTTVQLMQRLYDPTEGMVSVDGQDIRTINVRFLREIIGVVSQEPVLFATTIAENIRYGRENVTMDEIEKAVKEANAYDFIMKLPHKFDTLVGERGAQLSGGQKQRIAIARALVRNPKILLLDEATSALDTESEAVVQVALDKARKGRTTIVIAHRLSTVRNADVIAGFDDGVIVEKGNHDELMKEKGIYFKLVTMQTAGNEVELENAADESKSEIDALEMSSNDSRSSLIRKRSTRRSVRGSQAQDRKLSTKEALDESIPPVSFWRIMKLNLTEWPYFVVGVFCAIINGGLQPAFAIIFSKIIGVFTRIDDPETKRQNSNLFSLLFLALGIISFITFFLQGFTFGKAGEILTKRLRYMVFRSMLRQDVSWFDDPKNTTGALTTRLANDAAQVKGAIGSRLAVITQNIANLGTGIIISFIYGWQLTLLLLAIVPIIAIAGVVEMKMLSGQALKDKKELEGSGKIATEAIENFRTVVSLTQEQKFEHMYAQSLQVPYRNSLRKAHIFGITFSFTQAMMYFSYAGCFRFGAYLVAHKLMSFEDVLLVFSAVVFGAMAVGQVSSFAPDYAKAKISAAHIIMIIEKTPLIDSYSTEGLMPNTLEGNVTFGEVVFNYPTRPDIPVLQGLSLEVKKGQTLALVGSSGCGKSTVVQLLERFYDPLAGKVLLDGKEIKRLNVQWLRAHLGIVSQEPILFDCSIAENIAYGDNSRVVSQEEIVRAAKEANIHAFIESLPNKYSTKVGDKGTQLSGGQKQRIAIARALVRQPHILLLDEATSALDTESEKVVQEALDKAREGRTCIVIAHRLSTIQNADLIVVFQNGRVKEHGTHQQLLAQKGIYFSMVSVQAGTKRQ
test description: Bidirectional transport across Caco-2 monolayers (P-gp mediated transport)
Type: in vitro ADME
condition summary: human, Caco-2, with cyclosporine A (CSA) 5 μM; 1 μM, with CSA 5 μM
observable: Papp B→A at 120 min, 1 μM (×10⁻⁶ cm/s)
Answers are plain numbers, in ×10⁻⁶ cm/s.

Exercise: Specify Papp B→A at 120 min, 1 μM for CCN1C(=O)N(c2c(F)c(OC)cc(OC)c2F)Cc2cnc3[nH]c(CN4CCOCC4)cc3c21 [Compound 1] and stop.
Solution: 9

* * *

study target: P-gp (Homo sapiens (Human))
test description: Bidirectional transport across Caco-2 monolayers (P-gp mediated transport)
Format: in vitro ADME
condition summary: human, Caco-2, with cyclosporine A (CSA) 5 μM; 30 μM, with CSA 5 μM
observable: Papp A→B at 120 min, 30 μM (×10⁻⁶ cm/s)
One number for each entry, in ×10⁻⁶ cm/s.

Exercise: Specify Papp A→B at 120 min, 30 μM for CCN1C(=O)N(c2c(F)c(OC)cc(OC)c2F)Cc2cnc3[nH]c(CN4CCOCC4)cc3c21 and stop.
Solution: 18

* * *

test description: Permeability in Caco-2 cells (absorptive direction A-B)
Type: in vitro ADME
condition summary: human, Caco-2, 4% BSA in receiver, read-out: CACO2 Pm
observable: Papp A→B at 120 min (×10⁻⁶ cm/s)
Numbers only, in ×10⁻⁶ cm/s.

Examples with answers:
| mol | Papp A→B at 120 min [×10⁻⁶ cm/s] |
| --- | --- |
| [2H]C([2H])([2H])Oc1cc(OC([2H])([2H])[2H])c(F)c(N2Cc3cnc4[nH]c(CN5CCOCC5)cc4c3N(CC)C2=O)c1F | 16 |
| CCN1C(=O)N(c2c(F)c(O)cc(OC)c2F)Cc2cnc3[nH]c(CN4CCOCC4)cc3c21 | 0.5 |

Lab note: next compound to report on.
Exercise: Specify Papp A→B at 120 min for CCN1C(=O)N(c2c(F)c(OC)cc(OC)c2F)Cc2cnc3[nH]c(CN4CCOCC4)cc3c21 and stop.
Solution: 11

* * *

study target: tyrosine-phosphorylated Fibroblast Growth Factor Receptor 2 alpha (FGFR2α) in KATO III cells (Homo sapiens)
Sequence (P21802 22-821 limits assumed): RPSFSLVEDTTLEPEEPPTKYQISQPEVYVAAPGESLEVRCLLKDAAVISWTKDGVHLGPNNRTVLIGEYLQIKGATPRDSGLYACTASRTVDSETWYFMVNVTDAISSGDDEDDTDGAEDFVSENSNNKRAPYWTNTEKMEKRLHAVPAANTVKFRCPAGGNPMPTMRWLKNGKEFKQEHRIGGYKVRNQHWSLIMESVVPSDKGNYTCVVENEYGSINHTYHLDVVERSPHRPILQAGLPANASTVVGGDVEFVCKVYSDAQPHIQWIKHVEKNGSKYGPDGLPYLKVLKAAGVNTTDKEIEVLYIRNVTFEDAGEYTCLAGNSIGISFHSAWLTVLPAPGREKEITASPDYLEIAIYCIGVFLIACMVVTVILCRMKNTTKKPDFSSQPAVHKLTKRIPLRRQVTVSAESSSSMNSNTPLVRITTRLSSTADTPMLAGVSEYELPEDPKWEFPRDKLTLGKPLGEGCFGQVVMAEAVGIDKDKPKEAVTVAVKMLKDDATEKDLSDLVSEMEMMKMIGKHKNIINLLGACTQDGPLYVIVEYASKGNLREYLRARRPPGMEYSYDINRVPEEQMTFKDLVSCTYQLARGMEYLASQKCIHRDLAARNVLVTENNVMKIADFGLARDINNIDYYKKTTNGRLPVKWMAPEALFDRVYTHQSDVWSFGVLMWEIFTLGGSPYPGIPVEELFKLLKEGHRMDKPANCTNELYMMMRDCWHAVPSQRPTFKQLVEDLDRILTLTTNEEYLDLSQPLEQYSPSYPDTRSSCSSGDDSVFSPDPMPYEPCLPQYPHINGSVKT
test description: KATOIII Whole Blood pFGFR2α ELISA Assay
Type: cell-based
condition summary: KATO III cells spiked into human whole blood, 4 hours; read-out: FGFR2_WB_ELISA-KATOIII IC50
observable: IC50

Exercise: Specify IC50 for CCN1C(=O)N(c2c(F)c(O)cc(OC)c2F)Cc2cnc3[nH]c(CN4CCOCC4)cc3c21 and stop.
Solution: 50 to 250 nM
